# subject of test: T1, human OT7T175 (metastin receptor) (human, UniProt Q969F8 1-398)
# T1 construct: expressed on CHO cells; also called hOT7T175; hOT7T175-expressed CHO cells
# assay comment: competition with Cy-5 metastin (40-54) on hOT7T175-CHO cells, FMAT
Non-standard residues stand in square brackets, D forms with d. No end group written: not given here. Phe(3-CF3) = N[C@@H](Cc1cccc(C(F)(F)F)c1)C(=O)O; Arg(Me) = CNC(=N)NCCC[C@H](N)C(=O)O; d3Pal = N[C@H](Cc1cccnc1)C(=O)O; d4Pal = N[C@H](Cc1ccncc1)C(=O)O; azaGly = NNC(=O)O
Consider the following binders; for each one, report its pIC50.
Convention used: pIC50 is expressed as -log10 of the molar concentration.

Entry YNWNSFGLR[Phe(3-CF3)]-NH2 (also called Compound No. 200) [[Phe(3CF3)10]MS10] ; pIC50 = 6.47

Entry [dY][d4Pal]NSF[azaGly]L[Arg(Me)]F-NH2 (N-terminus assumed; SMILES CNC(=N)NCCC[C@H](NC(=O)[C@H](CC(C)C)NC(=O)NNC(=O)[C@H](Cc1ccccc1)NC(=O)[C@H](CO)NC(=O)[C@H](CC(N)=O)NC(=O)[C@@H](Cc1ccncc1)NC(=O)[C@H](N)Cc1ccc(O)cc1)C(=O)N[C@@H](Cc1ccccc1)C(N)=O, also called Compound No. 305; KiSS1-305) [des(1)-[D-Tyr2,D-Pya(4)3,AzaGly7,Arg(Me)9]MS10] — recorded pIC50 = 8.89

Per the records, this binder ( [d3Pal]FNSF[azaGly]L[Arg(Me)]F-NH2 (N-terminus assumed; SMILES CNC(=N)NCCC[C@H](NC(=O)[C@H](CC(C)C)NC(=O)NNC(=O)[C@H](Cc1ccccc1)NC(=O)[C@H](CO)NC(=O)[C@H](CC(N)=O)NC(=O)[C@H](Cc1ccccc1)NC(=O)[C@H](N)Cc1cccnc1)C(=O)N[C@@H](Cc1ccccc1)C(N)=O, also called Compound No. 256) [des(1)-[D-Pya(3)2,Phe3,AzaGly7,Arg(Me)9]MS10] ) has pIC50 equal to 7.66
